- method.notes: PK of compound of Formula (Ia) after single subcutaneous dose of solution formulations in Wistar Han rats
- Assay type: in vivo
- condition: male, Wistar Han, rat, plasma, sc, 50 mg/kg, male Wistar Han rats, single SC 50 mg/kg, 400 mg/mL solution Z (3.13% poloxamer 188), mean ± SD, n = 4; read-out: AUC0-2352 h
readout.name: AUC(0-t) (µM·h)
Give bare numbers, in µM·h.

For reference, reported AUC(0-t) for `CC(C)(C#Cc1ccc(-c2ccc(Cl)c3c(NS(C)(=O)=O)nn(CC(F)(F)F)c23)c([C@H](Cc2cc(F)cc(F)c2)NC(=O)Cn2nc(C(F)(F)F)c3c2C(F)(F)[C@@H]2C[C@H]32)n1)S(C)(=O)=O` stands at 344

====

- method.notes: PK of compound of Formula (Ia) after single subcutaneous dose of solution formulations in beagle dogs
- Format: in vivo
- condition: male, beagle, dog, plasma, sc, 12 mg/kg, 48.0 h; mean, n = 3 dogs; SC 12 mg/kg; solution U, 500 mg/mL
readout.name: concentration at 48 h (nM)
Give bare numbers, in nM.

For reference, reported concentration at 48 h for `CC(C)(C#Cc1ccc(-c2ccc(Cl)c3c(NS(C)(=O)=O)nn(CC(F)(F)F)c23)c([C@H](Cc2cc(F)cc(F)c2)NC(=O)Cn2nc(C(F)(F)F)c3c2C(F)(F)[C@@H]2C[C@H]32)n1)S(C)(=O)=O` stands at 87.2

====

- method.notes: PK of compound of Formula (Ia) after single subcutaneous dose of solution formulations in Wistar Han rats
- Assay type: in vivo
- condition: male, Wistar Han, rat, plasma, sc, 50 mg/kg, 840 h; individual rats; SC 50 mg/kg; solution S, 500 mg/mL
readout.name: concentration at 840 h
Please answer using a numeric value trailed by its unit.

For reference, reported concentration at 840 h for CC(C)(C#Cc1ccc(-c2ccc(Cl)c3c(NS(C)(=O)=O)nn(CC(F)(F)F)c23)c([C@H](Cc2cc(F)cc(F)c2)NC(=O)Cn2nc(C(F)(F)F)c3c2C(F)(F)[C@@H]2C[C@H]32)n1)S(C)(=O)=O [compound of Formula (Ia)] stands at 0.429 µM

====

- method.notes: PK of compound of Formula (Ia) after single subcutaneous dose of solution formulations in Wistar Han rats
- Type: in vivo
- condition: male, Wistar Han, rat, plasma, sc, 50 mg/kg, mean ± SD, n = 5 rats; SC 50 mg/kg; solution T, 400 mg/mL; read-out: AUC0-1680 h
readout.name: AUC(0-t) (µM·h)
Numbers only, in µM·h.

For reference, reported AUC(0-t) for `CC(C)(C#Cc1ccc(-c2ccc(Cl)c3c(NS(C)(=O)=O)nn(CC(F)(F)F)c23)c([C@H](Cc2cc(F)cc(F)c2)NC(=O)Cn2nc(C(F)(F)F)c3c2C(F)(F)[C@@H]2C[C@H]32)n1)S(C)(=O)=O` stands at 485

====

- method.notes: PK of compound of Formula (Ia) after single subcutaneous dose of solution formulations in Wistar Han rats
- Type: in vivo
- condition: male, Wistar Han, rat, plasma, sc, 50 mg/kg, mean ± SD, n = 5 rats; SC 50 mg/kg; solution T, 400 mg/mL
readout.name: Cmax (nM)
Answers are plain numbers, in nM.

For reference, reported Cmax for CC(C)(C#Cc1ccc(-c2ccc(Cl)c3c(NS(C)(=O)=O)nn(CC(F)(F)F)c23)c([C@H](Cc2cc(F)cc(F)c2)NC(=O)Cn2nc(C(F)(F)F)c3c2C(F)(F)[C@@H]2C[C@H]32)n1)S(C)(=O)=O [compound of Formula (Ia)] stands at 450
